Measured Neutralizing activity IC50, listed per entry.
biological target: human-mouse chimeric EL (construct not specified); assay: cell-based or functional assay
Could you give me the number in nM? Just the number is fine.

Some binders with known Neutralizing activity IC50 results, for comparison:
[
  {
    "binder": "h12B10-S4 (antibody, V domains shown) VH: EVQLVESGGGLVKPGGSLRLSCAASGFSLSSSGMGVGWVRQAPGKGLEWLAHIWWNDEKYYNPSLKSRFTISRDDSKNTLYLQMNSLKTEDTAVYYCARDHLVFFFDLWGQGTLVTVSS VL: DIQMTQSPSSLSASVGDRVTITCKASQDINKYIAWYQQKPGKAPKLLMAYPFTLQPGVPSRFSGSGSGTDFTLTISSLQPEDFATYYCLQYDNLLWTFGQGTKVEIK",
    "unit of measurement": "nM",
    "Neutralizing activity IC50": 6.2
  },
  {
    "binder": "h12B10-S3 (antibody, V domains shown) VH: EVQLVESGGGLVKPGGSLRLSCAASGFSLSTSGMGVGWVRQAPGKGLEWLAHIWWNDEKYYNPSLKSRFTISRDDSKNTLYLQMNSLKTEDTAVYYCARDHLAFFFDLWGQGTLVTVSS VL: DIQMTQSPSSLSASVGDRVTITCKASQDINKYIAWYQQKPGKAPKLLMAYPFTLQPGVPSRFSGSGSGTDFTLTISSLQPEDFATYYCLQYDNLLWTFGQGTKVEIK",
    "unit of measurement": "nM",
    "Neutralizing activity IC50": 4.9
  }
]

Now turn to the next binder.
Please fill in: Neutralizing activity IC50 reported for h12B10-S1 (antibody, V domains shown) VH: EVQLVESGGGLVKPGGSLRLSCAASGFSLSTSGMGVGWVRQAPGKGLEWLAHIWWNDEKYYNPSLKSRFTISRDDSKNTLYLQMNSLKTEDTAVYYCARDHLAYYFDVWGQGTLVTVSS VL: DIQMTQSPSSLSASVGDRVTITCKASQDINKYIAWYQQKPGKAPKLLMAYPFTLQPGVPSRFSGSGSGTDFTLTISSLQPEDFATYYCLQYDNLLWTFGQGTKVEIK = 6
